# target-desc: MELK (Homo sapiens)
# Sequence (Q14680 whole entry): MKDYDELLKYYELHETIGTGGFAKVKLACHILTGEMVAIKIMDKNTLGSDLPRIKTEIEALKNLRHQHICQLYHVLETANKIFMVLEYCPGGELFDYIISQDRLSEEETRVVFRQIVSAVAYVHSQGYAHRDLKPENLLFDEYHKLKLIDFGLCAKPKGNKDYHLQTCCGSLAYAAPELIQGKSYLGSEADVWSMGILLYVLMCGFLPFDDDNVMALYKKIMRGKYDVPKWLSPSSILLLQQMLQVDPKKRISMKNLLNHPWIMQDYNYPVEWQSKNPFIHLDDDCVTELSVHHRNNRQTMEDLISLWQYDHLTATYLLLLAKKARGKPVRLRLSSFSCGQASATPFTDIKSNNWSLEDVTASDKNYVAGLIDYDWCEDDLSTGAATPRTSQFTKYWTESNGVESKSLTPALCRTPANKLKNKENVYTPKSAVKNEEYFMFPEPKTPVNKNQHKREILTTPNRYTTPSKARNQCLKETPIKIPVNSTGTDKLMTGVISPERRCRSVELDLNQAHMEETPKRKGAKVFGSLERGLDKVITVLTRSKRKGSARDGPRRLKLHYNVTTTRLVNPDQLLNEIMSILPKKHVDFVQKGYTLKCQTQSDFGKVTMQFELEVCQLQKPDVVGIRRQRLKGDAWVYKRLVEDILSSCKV
# assay-summary: Kinase panel: MELK
# Format: biochemical, human/mammalian
# measurement-conditions: compound at 10 μM, read-out: % of activity respect of the control
The compounds listed here are annotated with their remaining activity at 10 µM.
property-name: remaining activity at 10 µM (%)

compound | endpoint-unit | measured-number
O=c1[nH]c2ncc(-c3ccc(F)cc3)nc2n1CC1CC1 | % | 125
CC(c1ccccc1)n1c(=O)[nH]c2ncc(-c3ccc(F)cc3)nc21 (stereo not shown) | % | 118
O=c1[nH]c2ncc(-c3ccc(F)cc3)nc2n1C1CCCCC1 | % | 110
C[C@H](c1ccccc1)n1c(=O)[nH]c2ncc(-c3ccccc3)nc21 | % | 100
